hERG Binding % Displacement @ 10 μM values by entry
# system-name: human ether-a-go-go potassium channel (hERG) expressed in HEK293 cells (Homo sapiens, UniProt Q12809)
# Construct: expressed in transfected cells; host or cells: HEK293 cells
# Sequence (Q12809 whole entry): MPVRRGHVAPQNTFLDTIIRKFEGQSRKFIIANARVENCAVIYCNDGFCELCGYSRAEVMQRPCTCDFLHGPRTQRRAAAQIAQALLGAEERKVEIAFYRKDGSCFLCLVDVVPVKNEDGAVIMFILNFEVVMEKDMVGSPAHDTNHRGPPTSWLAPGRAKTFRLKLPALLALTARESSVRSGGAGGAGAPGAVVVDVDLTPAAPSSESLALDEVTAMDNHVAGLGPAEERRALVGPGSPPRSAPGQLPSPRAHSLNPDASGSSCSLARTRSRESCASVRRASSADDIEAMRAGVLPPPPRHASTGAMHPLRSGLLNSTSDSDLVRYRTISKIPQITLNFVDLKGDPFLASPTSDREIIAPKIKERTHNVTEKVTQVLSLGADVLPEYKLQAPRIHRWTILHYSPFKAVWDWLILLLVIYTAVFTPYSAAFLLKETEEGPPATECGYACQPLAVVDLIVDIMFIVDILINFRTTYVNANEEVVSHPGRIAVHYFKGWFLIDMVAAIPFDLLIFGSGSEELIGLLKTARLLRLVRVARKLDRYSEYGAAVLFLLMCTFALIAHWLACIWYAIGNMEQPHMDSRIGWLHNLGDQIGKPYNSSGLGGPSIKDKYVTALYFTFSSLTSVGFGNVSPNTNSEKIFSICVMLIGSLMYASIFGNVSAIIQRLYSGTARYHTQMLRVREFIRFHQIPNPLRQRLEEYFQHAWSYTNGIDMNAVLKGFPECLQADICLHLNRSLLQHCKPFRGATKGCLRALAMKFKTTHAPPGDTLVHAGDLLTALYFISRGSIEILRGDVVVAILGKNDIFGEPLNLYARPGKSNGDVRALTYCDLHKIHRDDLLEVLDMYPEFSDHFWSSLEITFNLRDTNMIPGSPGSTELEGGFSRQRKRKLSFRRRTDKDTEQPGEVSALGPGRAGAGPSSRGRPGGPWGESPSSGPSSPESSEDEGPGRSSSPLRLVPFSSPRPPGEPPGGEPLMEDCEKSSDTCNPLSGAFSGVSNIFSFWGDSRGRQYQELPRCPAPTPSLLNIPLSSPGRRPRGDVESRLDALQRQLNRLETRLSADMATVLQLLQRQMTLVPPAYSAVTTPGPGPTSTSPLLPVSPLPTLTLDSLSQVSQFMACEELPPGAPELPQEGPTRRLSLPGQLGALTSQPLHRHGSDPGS
# protocol-description: hERG binding, displacement of [3H]-astemizole
# applied-conditions: 10 μM test compound, 1.5 nM [3H]-astemizole, duplicate

compound: O=C1CCc2cc(OCC3CN(C(=O)n4ccnc4)C3)ccc2N1 [Compound 26]
result-operator: <
hERG Binding % Displacement @ 10 μM [%]: 1
//
compound: O=C1CCc2cc(OCC3CCN(C(=O)Nc4ccc(C(F)(F)F)cc4)CC3)ccc2N1 [Compound 17]
result-operator: =
hERG Binding % Displacement @ 10 μM [%]: 75
//
compound: O=C1CCc2cc(OCC3CN(C(=O)NCc4ccc(Cl)cc4)C3)ccc2N1 [Compound 28]
result-operator: =
hERG Binding % Displacement @ 10 μM [%]: 27
//
compound: O=C1CCc2cc(OCC3CCN(C(=O)Nc4ccc(Cl)cc4)CC3)ccc2N1 [Compound 13]
result-operator: =
hERG Binding % Displacement @ 10 μM [%]: 37

###

# Tested on: α1-Adrenergic
# protocol-description: α1-Adrenergic binding, displacement of [3H]-prazosin from brain membranes
# applied-conditions: 3 μM test compound, 0.25 nM [3H]-prazosin, Wistar rat brain membranes, duplicate
measure-name: α1-Adrenergic binding % Displacement @ 3 μM (%)

compound: O=C1CCc2cc(OCC3CN(C(=O)Nc4ccc(Cl)cc4)C3)ccc2N1 [Compound 21]
u: %
assay-value: 2

compound: O=C1CCc2cc(OCC3CCN(C(=O)Nc4ccc(Cl)cc4)CC3)ccc2N1 [Compound 13]
u: %
assay-value: 16

compound: O=C1CCc2cc(OCC3CCN(C(=O)Nc4ccc(C(F)(F)F)cc4)CC3)ccc2N1 [Compound 17]
u: %
assay-value: 7

compound: O=C1CCc2cc(OCC3CN(C(=O)NCc4ccc(Cl)cc4)C3)ccc2N1 [Compound 28]
u: %
assay-value: 12

compound: O=C1CCc2cc(OCC3CN(C(=O)Nc4ccc(C(F)(F)F)cc4)C3)ccc2N1 [Compound 24]
u: %
assay-value: 12

compound: O=C1CCc2cc(OCC3CCN(C(=O)OCc4ccc(Cl)cc4)CC3)ccc2N1 [Compound 11]
u: %
assay-value: 16

Every entry's value here was drawn from patent US20140148432A1.
